B1: Far upstream element-binding protein 1, residues 184 to 257; numbered along this chain, Q96AE4 (parent)
chain: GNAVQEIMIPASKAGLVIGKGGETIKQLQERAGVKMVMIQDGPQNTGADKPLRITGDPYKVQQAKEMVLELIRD

variants of: B1; assay: abundance fitness (aPCA) (normalised: wild type 0, dead -1); higher = more abundant; growth selection in yeast, the domain comes from the species named; settings: Homo sapiens
Measure name: abundance fitness
Answers are plain numbers.

Required: abundance fitness, one value per variant below.
1. G15V
2. E66T
3. P43N
4. R73F
5. V34R
6. I25Y

1: -0.026; 2: -0.03; 3: -0.123; 4: -0.197; 5: -0.974; 6: -0.332
